test system: NCI-H322M lung; experiment: NCI-60 one-dose screen, 48 h; details: 10 µM unless noted
The panel holds about 83,000 compounds, 20% with a hit somewhere; the sample as a whole holds those more often. Calls of active or inactive are those of the source. The calls were made as follows: active = growth percent below 10; inactive = the rest.
Labels: yes = active, no = inactive

Molecule: Clc1nc2ccccc2nc1CI
Qualitative Label: no
--
Molecule: COc1ccc(-c2nc(-c3ccccc3)c(-c3ccccc3)n2C2CC2)cc1OC1CCCCC1
Qualitative Label: no
--
Molecule: Nc1nc(-c2cc3ccccc3o2)cc(=O)c(=O)[nH]1
Qualitative Label: no
--
Molecule: N#Cc1c(NC(=O)c2ccc([N+](=O)[O-])o2)[n+]([O-])c2cc(F)c(F)cc2[n+]1[O-]
Qualitative Label: no
--
Molecule: COc1ccc(C2CC(=O)Nc3c2c(C)nn3-c2nc3ccccc3[nH]2)cc1OC (centres undefined)
Qualitative Label: no
--
Molecule: O=C1OC(c2ccccc2)=N/C1=C\c1ccc([N+](=O)[O-])cc1
Qualitative Label: no
--
Molecule: CCN(CC)c1cc(/C=C/c2ccc(OC)c(OC)c2)nc2cc(F)c(F)cc12
Qualitative Label: no
--
Molecule: COc1cc(NC(=O)CCl)ccc(=O)c1
Qualitative Label: no
--
Molecule: COC(=O)c1cc(-c2cccs2)c(C#N)c(N)c1C#N
Qualitative Label: no
--
Molecule: CCN1C(=O)/C(=c2\sc3n(c2=O)C2C(NN=3)N(CC)C(=S)N2CC)c2ccccc21 (centres undefined)
Qualitative Label: no
--
Molecule: COc1ccc(NC(=S)/N=c2\oc3c(OC)cccc3cc2-c2cc3ccccc3[nH]2)cc1
Qualitative Label: no
--
Molecule: O=C(/C=C/CN1CCOCC1)Nc1cc2c(Nc3cccc(Cl)c3F)ncnc2cc1OCCOC(F)F
Qualitative Label: yes
--
Molecule: O=C(Nc1ccc(OCc2nnc(-c3ccc(Cl)cc3)o2)c(F)c1)Nc1ccc(Cl)c(Cl)c1
Qualitative Label: no
--
Molecule: CS(=O)(=O)N(c1cc(-c2ccc3ncnc(Nc4cccc(Cl)c4)c3c2)cnc1Cl)S(C)(=O)=O
Qualitative Label: yes
--
Molecule: COc1ccc(N=C2NN=C(c3ccc(F)cc3)CS2)cc1OC
Qualitative Label: no
--
Molecule: Oc1ccc(Cl)cc1-c1cc(-c2ccc(Cl)cc2)n[nH]1
Qualitative Label: no
--
Molecule: COc1ccc(-c2nc3sccn3c2-c2ccnc(NCCCNS(=O)(=O)c3ccc(C)cc3)n2)cc1
Qualitative Label: no
--
Molecule: CCC(=O)Oc1cc(/C=C/C(=O)O[C@H]2C[C@H]3CN4CCc5c([nH]c6cc(OC)ccc56)[C@@H]4C[C@@H]3[C@@H](C(=O)OC)[C@@H]2OC)ccc1OC
Qualitative Label: no
--
Molecule: CCNC(=O)C1CCCN1C(=O)C(CCCN=C(N)N)NC(=O)C(CC(C)C)NC(=O)C(CC(C)C)NC(=O)C(Cc1ccc(O)cc1)NC(=O)C(CO)NC(=O)C(Cc1c[nH]c2ccccc12)NC(=O)C(Cc1cnc[nH]1)NC(=O)C1CCC(=O)N1 (centres undefined)
Qualitative Label: no

Source listed as PubChem BioAssay (NCI).
